Exercise: state measured pIC50 for each of the molecules provided.
target: human P2X3 receptor (Homo sapiens (Human), UniProt P56373); experiment: P2X3 receptor inhibition, ATP-evoked Fluo-3 calcium fluorescence (FDSS 3000); details: C6BU-1 cell transfected with human P2X3 receptor gene; ATP-evoked Fluo-3 fluorescence
Sequence (P56373 whole entry): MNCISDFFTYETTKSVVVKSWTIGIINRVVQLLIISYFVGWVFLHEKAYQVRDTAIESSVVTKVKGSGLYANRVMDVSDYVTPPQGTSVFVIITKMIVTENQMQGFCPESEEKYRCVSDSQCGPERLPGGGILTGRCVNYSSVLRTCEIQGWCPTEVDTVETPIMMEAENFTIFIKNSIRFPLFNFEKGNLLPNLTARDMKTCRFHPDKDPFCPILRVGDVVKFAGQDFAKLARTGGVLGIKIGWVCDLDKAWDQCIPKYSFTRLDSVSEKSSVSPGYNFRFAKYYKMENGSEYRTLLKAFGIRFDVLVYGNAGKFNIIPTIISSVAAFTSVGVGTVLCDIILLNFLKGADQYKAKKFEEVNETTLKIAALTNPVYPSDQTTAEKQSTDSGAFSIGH
Answers are plain numbers, as −log10 of the molar value.

Cc1nc(-c2ccc(N3C(=O)C(O)=C(C(=O)C(C)C)C3c3ccccc3OC3CCCC3)cc2)no1 (stereo not shown); 7.77
COc1ccccc1C1c2c(C(=O)N(C)C)n[nH]c2C(=O)N1c1ccc(-c2ccsc2)cc1 (stereo not shown); 6.58
COc1cc(F)ccc1C1C(C(=O)CC(C)C)=C(O)C(=O)N1c1ccc(-c2ccsc2)cc1 (stereo not shown); 7.57
COCc1ccccc1C1C(C(=O)C(C)C)=C(O)C(=O)N1c1ccc(-c2noc(C)n2)cc1 (stereo not shown); 6.47

Batch request: pIC50 per item, same order as input.
1. COc1ncccc1C1C(C(=O)C(C)(C)C)=C(O)C(=O)N1c1ccc(-c2ccoc2)cc1 (stereo not shown)
2. CC(C)(C)c1n[nH]c2c1C(c1ccccc1OCCO)N(c1ccc(-c3ccoc3)cc1)C2=O (stereo not shown)

1: 6.55; 2: 8.10

###

target: human P2X3 receptor (Homo sapiens (Human), UniProt P56373); test: P2X3 receptor inhibition, ATP-evoked Fluo-3 calcium fluorescence (FDSS 3000); conditions: C6BU-1 cell transfected with human P2X3 receptor gene; ATP-evoked Fluo-3 fluorescence
Exercise: state measured log10(IC50) for each of the molecules provided.
Each number you see is log10 of IC50, and the unit inside the log is nM.

Solved cases (5 shown):
COc1ccccc1C1C(C(=O)CC(C)(C)C)=C(O)C(=O)N1c1ccc(-c2ccon2)cc1 (centres unmarked); 2.55
CCOC(=O)c1ccc(N2C(=O)c3[nH]nc(C(C)(C)C)c3C2c2ccccc2OC)cc1 (centres unmarked); 1.23
COc1ncccc1C1C(C(=O)C(C)(C)C)=C(O)C(=O)N1c1ccc(-c2ccsc2)nc1 (centres unmarked); 2.28
COCc1ccccc1C1C(C(=O)CC(C)C)=C(O)C(=O)N1c1ccc(-c2coc(C)n2)cc1 (centres unmarked); 2.98
COCCOc1ccccc1C1C(C(=O)CC(C)C)=C(O)C(=O)N1c1ccc(-c2cc(C)no2)cc1 (centres unmarked); 2.83

Batch request: log10(IC50) per item, same order as input.
1. COc1ncccc1C1c2c(C(C)(C)C)n[nH]c2C(=O)N1c1ccc(-c2cc(C)no2)cc1 (centres unmarked)
2. COc1ccc(C(=O)C2=C(O)C(=O)N(c3ccc(-c4noc(C)n4)cc3)C2c2ccccc2OC)cc1 (centres unmarked)
3. COc1ccccc1C1C(C(=O)C(C)(C)C)=C(O)C(=O)N1c1ccc(SC)cc1 (centres unmarked)

1. 2.51
2. 1.72
3. 2.27

###

target: human P2X3 receptor (Homo sapiens (Human)); test: P2X3 receptor inhibition, ATP-evoked Fluo-3 calcium fluorescence (FDSS 3000); settings: C6BU-1 cell transfected with human P2X3 receptor gene; ATP-evoked Fluo-3 fluorescence
param class (str): category from IC50; see ranges label 0 = under 20 nM, label 1 = from 20 nM up to 100 nM, label 2 = 100 nM and over

Use these answered entries as a reference point.
CSc1ccc(N2C(=O)c3[nH]nc(C(C)(C)C)c3C2c2ccccc2OCCO)cc1 (stereo not shown); label 0
CCCc1ccc(N2C(=O)C(O)=C(C(=O)C(C)(C)C)C2c2ccccc2OC)cc1 (stereo not shown); label 2
COc1ncccc1C1c2c(C(C)(C)C)n[nH]c2C(=O)N1c1ccc(-c2ccoc2)nc1 (stereo not shown); label 2
COCc1ccccc1C1C(C(=O)c2cccnc2)=C(O)C(=O)N1c1ccc(-c2ccsc2)cc1 (stereo not shown); label 1

GET /class?item= COc1ccccc1C1c2c(C(C)(C)C)n[nH]c2C(=O)N1c1ccc(-c2ccsc2)cc1 (stereo not shown)
label 0

GET /class?item= CC(C)C(=O)C1=C(O)C(=O)N(c2ccc(-c3ccsc3)cc2)C1c1cccnc1OCC(N)=O (stereo not shown)
label 0

GET /class?item= Cc1ccc(-c2ccc(N3C(=O)C(O)=C(C(=O)CC(C)C)C3c3ccccc3C(=O)N3CCOCC3)cc2)o1 (stereo not shown)
label 2

GET /class?item= CN(C)CCOc1ccccc1C1c2c(C(C)(C)C)n[nH]c2C(=O)N1c1ccc(-c2ccon2)cc1 (stereo not shown)
label 2

GET /class?item= CNC(=O)CCc1ccccc1C1C(C(=O)C(C)C)=C(O)C(=O)N1c1ccc(-c2ccc(C)o2)cc1 (stereo not shown)
label 1

GET /class?item= COCCOc1ccccc1C1C(C(=O)C(C)C)=C(O)C(=O)N1c1ccc(-c2cccs2)cc1 (stereo not shown)
label 0

GET /class?item= Cc1ccc(-c2ccc(N3C(=O)C(O)=C(C(=O)C(C)C)C3c3cccnc3OC(C)C)cc2)o1 (stereo not shown)
label 0

GET /class?item= CC(C)(C)c1n[nH]c2c1C(c1ccccc1OCC(N)=O)N(c1ccc(-c3ccsc3)cc1)C2=O (stereo not shown)
label 0

GET /class?item= CC(C)Oc1ccccc1C1C(C(=O)C(C)C)=C(O)C(=O)N1c1ccc(N2CCCC2)cc1 (stereo not shown)
label 1

GET /class?item= COc1ccc(C(=O)C2=C(O)C(=O)N(c3ccc(-c4ccon4)cc3)C2c2ccc(Br)cc2OC)cc1 (stereo not shown)
label 2

GET /class?item= COc1ccc2sc(N3C(=O)C(O)=C(C(=O)C(C)(C)C)C3c3ccccc3OC)nc2c1 (stereo not shown)
label 2

GET /class?item= COCCOc1ncccc1C1C(C(=O)CC(C)C)=C(O)C(=O)N1c1ccc(-c2ccsc2)cc1 (stereo not shown)
label 1
